Please provide measured yeast fitness for the entries that follow.
B1: tRNA (parent)
chain: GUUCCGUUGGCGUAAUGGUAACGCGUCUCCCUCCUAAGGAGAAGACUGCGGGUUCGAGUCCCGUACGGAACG

# Variants of: B1
# assay-details: yeast fitness relative to wild type (ratio to wild type); higher = fitter; tRNA-Arg(CCU), competitive growth, 37 C, YPD
This sample holds only a part of the variants without activity.

Entry GUUCCGUUGCCGUAAUGGUAACGCGUCUUCUUCCUAAGGAGAAGACUGCGGGUUCGAGUCCCGUUCGGAACG [G10C C29U C31U A65U] — recorded yeast fitness = ≤ 0.5

Entry GUUCCGUUGGCGUAAUGGUAAGGCGUCUCCCUCGUAAGGAGAAGACUGCGGGUUCGAGUCGCGUACGGAACG [C22G C34G C61G] — recorded yeast fitness = ≤ 0.5

Entry GUUCCGUUGGCGUAAUGGUAACGCGUAUCCCUCCUAAGGAGAAGACUGCGGGUUCGAGUCACGUACCGAACG [C27A C61A G67C] — recorded yeast fitness = ≤ 0.5

Entry GUUCCGUUGGCAUCACGGUAACGCGUCUCCUUCCUAAGGAGAAGACUGGGGGUUCGAGUACCGUACGGAACG [G12A A14C U16C C31U C49G C60A] — recorded yeast fitness = ≤ 0.5

Entry GUCCCGUUGGCGUAAUGGUAACGCGUCUCCCUCGUAAGGAGAAGACUGAAGGUUCGAGUCCCGUACGGAACG [U3C C34G C49A G50A] — recorded yeast fitness = ≤ 0.5

Entry GUUCCGUUGGCGUAAUGGUAACGCGUCUCCCUCUUGAGGAGAAGACUGCGGGUUAGAGUCCCGUACGGAACG [C34U A36G C55A] — recorded yeast fitness = ≤ 0.5

Entry GUUCCGUUGGCGUAAUAGUAACGCGUCUCCCUCCUAAGGAGAAGACUGCGGGUUCGAGUGGCGUACGGAACG [G17A C60G C61G] — recorded yeast fitness = ≤ 0.5

Entry GUUCCGUUGGUGUAAUGGUAACGCCUCUCCCUCCUAAGGUGAAGACUGGGGGUUCGAGUCCCCUACGGAACG [C11U G25C A40U C49G G63C] — recorded yeast fitness = ≤ 0.5

Entry GUUCCGUUGGCGUAAUGGUAACGCGUUUCCAUCCGAAGGAGAAGACUGCGGGUUGGAGUCCCGUACGGAACG [C27U C31A U35G C55G] — recorded yeast fitness = ≤ 0.5

Entry GUUCCGUUGGCGCAAUGGUAACCCGUCUCCCUCCUAAGGAGAAGACCGCGGGUUCGAGUCCCGUACGGAACG [U13C G23C U47C] — recorded yeast fitness = ≤ 0.5

Entry GUUCCGUUGGCGUGAUGGUAACGCGUCUCCGUCCUAAGGAGAUGAGUGCGGGUUCGAGUCCCGUACGGAUCG [A14G C31G A43U C46G A70U] — recorded yeast fitness = ≤ 0.5

Entry GUCCCGUUGGCGCAAUAGUAACGUGUCUCCCUCCUAAGGAGAAGACUGCGGAUUCGAGUCCCGUACGGAACG [U3C U13C G17A C24U G52A] — recorded yeast fitness = ≤ 0.5

Entry GUUCCGUUGGCGUAAUGGUAACGCGUCUCCCUCCUAAGGAGAAGACCGCGGGUUCGAGUCCCGUACUGAACG [U47C G67U] — recorded yeast fitness = 0.86

Entry GUUCCGUUGGCGUAAUGGUCACGCGUCUCCCUACUAAGGAGAAGACUGCGGGUUCGAGUCCCGUACGGAGCG [A20C C33A A70G] — recorded yeast fitness = 0.592

Entry GUUCCGUUGGCGUAAUGGUAAUGCGUCUCCCGCUUAAGGGGAAGACUGCGGGUUCGAGUCCCGUACGGAACG [C22U U32G C34U A40G] — recorded yeast fitness = 0.62

Reference for the values: the RNAGym collection of RNA variant scans (doi:10.1126/science.aae0568)
